# test-system: human JAK2 (a.a. 828-1132) (Homo sapiens)
# Construct: JAK2 (a.a. 828-1132); His tag (N); made in house; host or cells: insect cells (baculovirus)
# Sequence (O60674 828-1132): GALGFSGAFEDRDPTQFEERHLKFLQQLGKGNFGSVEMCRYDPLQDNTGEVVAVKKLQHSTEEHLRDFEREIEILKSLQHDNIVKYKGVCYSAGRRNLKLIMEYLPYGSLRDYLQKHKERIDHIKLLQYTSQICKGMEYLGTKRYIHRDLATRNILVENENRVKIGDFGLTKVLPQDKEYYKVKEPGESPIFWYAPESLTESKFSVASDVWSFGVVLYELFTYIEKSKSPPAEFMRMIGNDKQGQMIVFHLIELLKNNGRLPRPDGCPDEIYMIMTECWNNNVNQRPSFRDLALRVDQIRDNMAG
# protocol-summary: In vitro JAK kinase assay (HTRF, phosphorylation of a biotinylated peptide), JAK2
# Format: biochemical
# condition-context: Table B1
Counter-ions that a name gives are not always drawn.
assay-readout: IC50 (nM)
Could you give me the number in nM? Just the number is fine.

Some solved cases for reference:
- compound: "O=C(Nc1ccc2cc1CCc1cncc(c1)Nc1ncc(Cl)c(n1)N2)N1CCC(c2ccccc2)CC1 [Example B314, bis(trifluoroacetate)]"
  units-of-measure: "nM"
  numeric-result: 108
- compound: "N#Cc1ccccc1N1CCN(C(=O)Nc2ccc3cc2CCc2cncc(c2)Nc2ncc(Cl)c(n2)N3)CC1 [Example B300, tris(trifluoroacetate)]"
  units-of-measure: "nM"
  numeric-result: 160

-- ask Which IC50 is listed for Cc1ccccc1NC(=O)Nc1ccc2cc1CCc1cccc(c1)Nc1ncc(Cl)c(n1)N2 [Example B91, trifluoroacetate] ?
-- reply 2.7

-- ask Subsequent entry: O=C(Nc1cc2cc(c1)Nc1nc(ncc1Cl)Nc1cccc(c1)CC2)c1ccccn1 [Example B201, trifluoroacetate]
-- reply 410

-- ask Subsequent entry: Cc1oncc1C(=O)N1CCC(NC(=O)Nc2ccc3cc2CCc2cccc(c2)Nc2ncc(Cl)c(n2)N3)CC1 [Example B264, trifluoroacetate]
-- reply 25

-- ask Subsequent entry: O=C(NCc1ccncc1)c1cc2cc(c1)Nc1nc(ncc1Cl)Nc1cccc(c1)CC2 [Example B11, bis(trifluoroacetate)]
-- reply 92

-- ask Subsequent entry: CC(=O)Nc1ccc(C(=O)Nc2ccc3cc2CCc2cccc(c2)Nc2ncc(Cl)c(n2)N3)cc1 [Example B45, trifluoroacetate]
-- reply 0.6

-- ask Subsequent entry: O=C(Cc1ccccc1)Nc1ccc2cc1CCc1cccc(c1)Nc1ncc(Cl)c(n1)N2 [Example B32, trifluoroacetate]
-- reply 1.6

-- ask Subsequent entry: Clc1cnc2nc1Nc1cc(cc(CN3CCNCC3)c1)CCc1cccc(c1)N2 [Example B191, dihydrochloride]
-- reply 27

-- ask Subsequent entry: Nc1ccc2cc1CCc1cccc(c1)Nc1ncc(Cl)c(n1)N2 [Example B19, dihydrochloride]
-- reply 0.97

---

# reported IC50; entries follow
# test-system: human JAK1 (a.a. 837-1142) (Homo sapiens)
# Construct: human JAK1 (a.a. 837-1142); His tag (N); made in house; host or cells: insect cells (baculovirus)
# Sequence (P23458 849-1154): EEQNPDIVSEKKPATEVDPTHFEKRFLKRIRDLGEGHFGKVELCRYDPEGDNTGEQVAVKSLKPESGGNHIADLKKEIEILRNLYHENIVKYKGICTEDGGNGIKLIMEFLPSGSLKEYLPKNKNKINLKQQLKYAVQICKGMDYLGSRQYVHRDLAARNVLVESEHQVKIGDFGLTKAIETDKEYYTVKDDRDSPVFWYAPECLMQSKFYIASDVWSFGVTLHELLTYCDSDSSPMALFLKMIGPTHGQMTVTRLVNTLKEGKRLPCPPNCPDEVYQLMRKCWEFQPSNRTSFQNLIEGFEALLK
# protocol-summary: In vitro JAK kinase assay (HTRF, phosphorylation of a biotinylated peptide), JAK1
# Type: biochemical
# condition-context: Table D1; read-out: JAK1 IC50
Where a name gives a salt, the structure may show the parent alone.

Some solved cases for reference:
- compound: "O=C(Nc1cccs1)N1CCC(CCOc2ccc3cc2CCc2cncc(c2)Nc2ncc(Cl)c(n2)N3)CC1 [Example D167, bis(trifluoroacetate)]"
  IC50: "57 nM"
- compound: "O=C(Nc1cc2cc(c1)OCCSc1cccc(c1)Nc1nc(ncc1Cl)N2)c1ccno1 [Example D59, trifluoroacetate]"
  IC50: "2.3 nM"
- compound: "O=C(C[C@H]1CCCN(C(=O)c2ccccc2)C1)Nc1ccc2cc1CCc1cncc(c1)Nc1ncc(Cl)c(n1)N2 [Example D207, bis(trifluoroacetate)]"
  IC50: "9.4 nM"
- compound: "Cc1oncc1C(=O)N1CC[C@H](CC(=O)Nc2ccc3cc2CCc2cncc(c2)Nc2ncc(Cl)c(n2)N3)C1 [Example D108, bis(trifluoroacetate)]"
  IC50: "62 nM"

Moving on to the next compound.
-- ask Which IC50 is listed for N#CC1(C(=O)N2CCN(C(=O)COc3ccc4cc3CCc3cncc(c3)Nc3ncc(Cl)c(n3)N4)CC2)CC1 [Example D267, bis(trifluoroacetate)] ?
-- reply 84 nM

---

# test-system: human JAK3 (a.a. 781-1124) (Homo sapiens, UniProt P52333)
# Construct: JAK3 (a.a. 781-1124); His tag (N); made in house; host or cells: insect cells (baculovirus)
# Sequence (P52333 781-1124): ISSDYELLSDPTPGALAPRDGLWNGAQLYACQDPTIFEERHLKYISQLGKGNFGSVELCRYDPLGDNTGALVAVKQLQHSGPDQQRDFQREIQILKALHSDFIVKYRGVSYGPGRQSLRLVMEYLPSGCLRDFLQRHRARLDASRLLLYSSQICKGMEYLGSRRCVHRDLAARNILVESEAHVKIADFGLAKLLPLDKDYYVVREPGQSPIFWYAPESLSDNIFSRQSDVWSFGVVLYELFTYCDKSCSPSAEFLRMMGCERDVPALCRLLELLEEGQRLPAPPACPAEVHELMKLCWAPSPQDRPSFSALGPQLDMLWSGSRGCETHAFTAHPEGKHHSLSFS
# protocol-summary: In vitro JAK kinase assay (HTRF, phosphorylation of a biotinylated peptide), JAK3
# Type: biochemical
# condition-context: Table B1
Structures can show the parent of a compound that is named as a salt.
# reported IC50; entries follow

- compound: "O=C(Nc1ccc2cc1CCc1cccc(c1)Nc1ncc(Cl)c(n1)N2)c1ccccn1 [Example B37, bis(trifluoroacetate)]"
  test-system: "human JAK3 (a.a. 781-1124) (Homo sapiens, UniProt P52333)"
  result: "87 nM"
- compound: "Cc1ccnc(Nc2ccc3cc2CCc2cccc(c2)Nc2ncc(Cl)c(n2)N3)n1 [Example B276, bis(trifluoroacetate)]"
  test-system: "human JAK3 (a.a. 781-1124) (Homo sapiens, UniProt P52333)"
  result: "1170 nM"

-- ask Which IC50 is listed for CN(C(=O)Nc1ccc2cc1CCc1cncc(c1)Nc1ncc(Cl)c(n1)N2)[C@H]1CCN(Cc2ccccc2)C1 [Example B284] ?
-- reply > 1000 nM

-- ask Subsequent entry: O=C(Nc1ccc2cc1CCc1cncc(c1)Nc1ncc(Cl)c(n1)N2)N1CCN(c2ccc(C(F)(F)F)cn2)CC1 [Example B301, tris(trifluoroacetate)]
-- reply > 400 nM

-- ask Subsequent entry: CCCS(=O)(=O)NCCNC(=O)Nc1ccc2cc1CCc1cccc(c1)Nc1ncc(Cl)c(n1)N2 [Example B326, trifluoroacetate]
-- reply 7.8 nM

-- ask Subsequent entry: O=C(Nc1cc2cc(c1)Nc1nc(ncc1Cl)Nc1cccc(c1)CC2)NC1CCCC1 [Example B215, trifluoroacetate]
-- reply 189 nM

-- ask Subsequent entry: O=C(Nc1ccc2cc1CCc1cncc(c1)Nc1ncc(Cl)c(n1)N2)N[C@H]1CCN(C(=O)c2ccccc2)C1 [Example B227, bis(trifluoroacetate)]
-- reply 245 nM

-- ask Subsequent entry: O=C(Nc1cccc(N2CCOCC2)n1)Nc1ccc2cc1CCc1cccc(c1)Nc1ncc(Cl)c(n1)N2 [Example B133, bis(trifluoroacetate)]
-- reply 376 nM

---

# test-system: Recombinant Human Anaplastic Lymphoma Kinase (Homo sapiens)
# Construct: purchased Invitrogen, Carlsbad, Calif
# Sequence (Q9UM73 19-1620): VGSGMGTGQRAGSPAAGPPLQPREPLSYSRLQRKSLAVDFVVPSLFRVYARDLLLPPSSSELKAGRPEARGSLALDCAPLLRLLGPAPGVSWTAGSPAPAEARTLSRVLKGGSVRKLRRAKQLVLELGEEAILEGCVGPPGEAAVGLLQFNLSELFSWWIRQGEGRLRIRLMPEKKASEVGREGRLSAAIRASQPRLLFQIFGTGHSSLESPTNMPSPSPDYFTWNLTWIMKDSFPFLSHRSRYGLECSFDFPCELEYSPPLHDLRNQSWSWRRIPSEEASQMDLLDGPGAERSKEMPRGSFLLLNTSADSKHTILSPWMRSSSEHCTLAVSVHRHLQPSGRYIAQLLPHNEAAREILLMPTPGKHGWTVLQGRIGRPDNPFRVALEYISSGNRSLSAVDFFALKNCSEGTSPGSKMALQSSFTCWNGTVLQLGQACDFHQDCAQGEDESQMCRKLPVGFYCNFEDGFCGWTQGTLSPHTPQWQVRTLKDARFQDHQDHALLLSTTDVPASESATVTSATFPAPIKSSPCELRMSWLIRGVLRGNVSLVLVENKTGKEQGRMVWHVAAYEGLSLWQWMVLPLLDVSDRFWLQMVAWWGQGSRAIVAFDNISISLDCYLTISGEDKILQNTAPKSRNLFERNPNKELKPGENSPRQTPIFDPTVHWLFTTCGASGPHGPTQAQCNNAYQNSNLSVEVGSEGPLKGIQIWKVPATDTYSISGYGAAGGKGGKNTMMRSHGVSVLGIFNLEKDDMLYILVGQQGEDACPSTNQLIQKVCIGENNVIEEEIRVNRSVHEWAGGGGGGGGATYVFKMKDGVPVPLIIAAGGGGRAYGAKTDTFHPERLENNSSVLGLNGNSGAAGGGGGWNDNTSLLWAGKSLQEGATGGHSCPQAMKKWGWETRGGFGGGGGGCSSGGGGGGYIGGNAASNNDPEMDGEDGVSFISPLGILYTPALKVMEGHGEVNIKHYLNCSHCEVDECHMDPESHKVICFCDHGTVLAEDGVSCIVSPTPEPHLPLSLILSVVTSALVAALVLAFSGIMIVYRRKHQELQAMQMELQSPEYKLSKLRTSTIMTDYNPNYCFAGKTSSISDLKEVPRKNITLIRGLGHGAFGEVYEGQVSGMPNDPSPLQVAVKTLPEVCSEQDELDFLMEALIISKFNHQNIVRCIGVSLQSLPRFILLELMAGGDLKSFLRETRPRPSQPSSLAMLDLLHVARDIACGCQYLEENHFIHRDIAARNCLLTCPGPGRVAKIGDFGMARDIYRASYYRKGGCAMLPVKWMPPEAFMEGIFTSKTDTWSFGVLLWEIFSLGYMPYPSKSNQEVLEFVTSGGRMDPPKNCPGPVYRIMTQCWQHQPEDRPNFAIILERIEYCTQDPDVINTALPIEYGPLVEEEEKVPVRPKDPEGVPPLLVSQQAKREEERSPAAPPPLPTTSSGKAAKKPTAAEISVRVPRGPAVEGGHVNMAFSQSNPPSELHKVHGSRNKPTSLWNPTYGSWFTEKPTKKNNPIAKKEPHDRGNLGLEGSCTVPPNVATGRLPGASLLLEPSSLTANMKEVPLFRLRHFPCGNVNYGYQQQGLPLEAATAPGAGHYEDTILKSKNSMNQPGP
# protocol-summary: ALK HTRF kinase assay
# Assay type: biochemical
# condition-context: 90 μM ATP
Structures can show the parent of a compound that is named as a salt.
# reported pIC50; entries follow
Remember the convention: pIC50 equals -log10 of concentration in molar.

Some solved cases for reference:
- compound: "c1cc2cc(c1)Nc1ccnc(n1)Nc1cccc(c1)CC2 [Example A3, trifluoroacetate]"
  pIC50: 5.69
- compound: "Oc1ccc2cc1Nc1nc(ncc1Cl)Nc1cccc(c1)CC2 [Example A26, trifluoroacetate]"
  pIC50: 6.46
- compound: "Clc1cnc2nc1Nc1cccc(c1)CCc1cccc(c1)N2 [Example A2, trifluoroacetate]"
  pIC50: 6.18

-- ask Lookup: pIC50 / Recombinant Human Anaplastic Lymphoma Kinase (Homo sapiens) / CC(C)S(=O)(=O)c1ccc2cc1Nc1nc(ncc1Cl)Nc1cccc(c1)CC2 [Example A8, trifluoroacetate]
-- reply 7.10

---

# test-system: UniProt:P29597
# Sequence (P29597 whole entry): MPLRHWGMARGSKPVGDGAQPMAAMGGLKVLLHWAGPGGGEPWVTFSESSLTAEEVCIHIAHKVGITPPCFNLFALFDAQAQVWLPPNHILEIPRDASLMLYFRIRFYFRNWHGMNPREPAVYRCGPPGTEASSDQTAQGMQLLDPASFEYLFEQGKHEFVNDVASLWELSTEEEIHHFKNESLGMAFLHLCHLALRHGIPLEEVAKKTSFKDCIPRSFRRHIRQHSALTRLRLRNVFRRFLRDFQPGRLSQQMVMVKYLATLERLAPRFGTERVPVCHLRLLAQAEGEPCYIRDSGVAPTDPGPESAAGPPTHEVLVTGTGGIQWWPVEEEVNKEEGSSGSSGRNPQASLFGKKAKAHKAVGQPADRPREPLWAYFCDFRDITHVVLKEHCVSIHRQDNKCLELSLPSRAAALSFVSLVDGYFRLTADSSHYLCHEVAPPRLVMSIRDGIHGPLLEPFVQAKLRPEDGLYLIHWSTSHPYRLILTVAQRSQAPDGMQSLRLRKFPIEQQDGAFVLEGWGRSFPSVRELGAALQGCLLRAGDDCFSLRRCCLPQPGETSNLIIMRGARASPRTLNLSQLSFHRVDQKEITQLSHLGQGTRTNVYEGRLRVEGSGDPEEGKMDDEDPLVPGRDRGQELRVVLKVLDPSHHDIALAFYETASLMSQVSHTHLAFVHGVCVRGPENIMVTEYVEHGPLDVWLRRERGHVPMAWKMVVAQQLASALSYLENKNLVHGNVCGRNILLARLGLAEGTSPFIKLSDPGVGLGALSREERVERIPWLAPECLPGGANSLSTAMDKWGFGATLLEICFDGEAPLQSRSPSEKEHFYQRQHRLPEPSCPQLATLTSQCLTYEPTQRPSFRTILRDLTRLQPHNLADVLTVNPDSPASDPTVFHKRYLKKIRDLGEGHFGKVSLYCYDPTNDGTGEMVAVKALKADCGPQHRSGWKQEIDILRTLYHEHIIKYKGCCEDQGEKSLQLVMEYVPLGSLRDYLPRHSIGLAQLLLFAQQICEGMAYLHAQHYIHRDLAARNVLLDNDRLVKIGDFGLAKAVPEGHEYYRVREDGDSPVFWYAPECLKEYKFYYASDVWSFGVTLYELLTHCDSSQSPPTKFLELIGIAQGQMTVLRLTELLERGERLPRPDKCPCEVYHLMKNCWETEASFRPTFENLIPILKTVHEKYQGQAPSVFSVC
# protocol-summary: TYK2 kinase inhibition (Table A1)
# Format: biochemical
# condition-context: Table D1
Structures can show the parent of a compound that is named as a salt.
# reported IC50; entries follow
Could you give me the number in nM? Just the number is fine.

Some solved cases for reference:
- compound: "O=C(C[C@@H]1CCCN(C(=O)Nc2ccccc2)C1)Nc1ccc2cc1CCc1cccc(c1)Nc1ncc(Cl)c(n1)N2 [Example D196, trifluoroacetate]"
  assay-readout: "IC50"
  numeric-result: 31
- compound: "O=C(NCc1ccccc1)N1CCN(c2ccc(-c3cc4cc(c3)Nc3ncc(Cl)c(n3)Nc3cccc(c3)OCC4)cn2)CC1 [Example D48, bis(trifluoroacetate)]"
  assay-readout: "IC50"
  numeric-result: 8.3
- compound: "CS(=O)(=O)N1CCN(c2ccc(-c3cc4cc(c3)Nc3ncc(Cl)c(n3)Nc3cccc(c3)OCC4)cn2)CC1 [Example D38, bis(trifluoroacetate)]"
  assay-readout: "IC50"
  numeric-result: 4
- compound: "O=S1(=O)CCc2cccc(c2)Nc2ncc(Cl)c(n2)Nc2cccc1c2 [Example D24, trifluoroacetate]"
  assay-readout: "IC50"
  numeric-result: 16
- compound: "[O-][S+]1CCOc2cccc(c2)Nc2ncc(Cl)c(n2)Nc2cccc1c2 (centres unmarked) [Example D13, trifluoroacetate]"
  assay-readout: "IC50"
  numeric-result: 12
- compound: "O=C(CC1CN(C(=O)c2ccn[nH]2)C1)Nc1ccc2cc1CCc1cncc(c1)Nc1ncc(Cl)c(n1)N2 [Example D150, bis(trifluoroacetate)]"
  assay-readout: "IC50"
  numeric-result: 435

Moving on to the next compound.
-- ask Lookup: IC50 / UniProt:P29597 / CC(C)(C)NC(=O)N1CCN(c2ccc3cc2CCc2cccc(c2)Nc2ncc(Cl)c(n2)N3)CC1 [Example D84, bis(trifluoroacetate)]
-- reply 45
